Just for reference, patent US9133187B2 is where these values come from.

Reported IC50 is given for each of the following compounds.
System: PMA-stimulated P90RSK(Ser380) phosphorylation in HepG2 cells
Test: Cellular P90RSK(Ser380) Phosphorylation Assay
Type: cell-based
Details: Homo sapiens, 1.5 h compound incubation, PMA stimulation, pP90RSK(Ser380) normalized to GAPDH, read-out: Cell Assay IC50
QUANTITY NAME: IC50

COMPOUND: CC[C@@H](NC(=O)N1CCc2cnc(N[C@H]3CC[C@H](O)C3)nc2C1)c1ccc(C(F)(F)F)c(F)c1 [Compound I-37]
RESULT: 93 nM
--
COMPOUND: CC(C)Nc1ncc2c(n1)CN(C(=O)N[C@H](CO)c1ccc(Cl)c(Cl)c1)CC2 [Compound I-16]
RESULT: 52.4 nM
--
COMPOUND: CC(C)Nc1ncc2c(n1)CN(C(=O)N[C@H](CN)c1ccc(F)c(Cl)c1)CC2 [II-7]
RESULT: 50000 nM
--
COMPOUND: C[C@@H](NC(=O)N1CCc2cnc(N[C@H]3CCC(F)(F)C3)nc2C1)c1ccc(Cl)c(Cl)c1 [II-116]
RESULT: 130 nM
--
COMPOUND: CC1(C)CC[C@@H]([C@@H](NC(=O)N2CCc3cnc(NC4CCOCC4)nc3C2)c2ccc(C(F)(F)F)cc2F)N1 [Compound I-86]
RESULT: 3600 nM
--
COMPOUND: CC(C)Nc1ncc2c(n1)CN(C(=O)N[C@H](CNS(C)(=O)=O)c1ccc(F)c(Cl)c1)CC2 [II-43]
RESULT: 917 nM
--
COMPOUND: Cc1noc(C)c1Nc1ncc2c(n1)CN(C(=O)N[C@H](CO)c1ccc(F)c(Cl)c1)CC2 [II-34]
RESULT: 13200 nM
